Counter-ions that a name gives are not always drawn.
Recorded measurements of melting point, one per entry

Below, each entry is followed by its recorded melting point result.
Write down melting point measured for item C=CCNC(=N)C12CC3CC(CC(C3)C1)C2 (as salt: hydrochloride) [Example 7]
252 to 254 °C

Write down melting point measured for item CN(C)CCNC(=N)C12CC3CC(CC(C3)C1)C2 (as salt: hydrochloride) [Example 10, dihydrochloride]
293 °C (dec.)

Write down melting point measured for item CC12CC3CC(C)(C1)CC(CC(=N)N)(C3)C2 (as salt: hydrochloride) [Example 5]
252 to 253 °C

Write down melting point measured for item CCNC(=N)C12CC3CC(CC(C3)C1)C2 (as salt: hydrochloride) [Example 8]
315 °C (dec.)

Further cases:
Write down melting point measured for item CCC12CC3CC(C1)CC(C(=N)N)(C3)C2 (as salt: hydrochloride) [Example 4]
210 to 212 °C

Write down melting point measured for item N=C(NCc1ccccc1)C12CC3CC(CC(C3)C1)C2 (as salt: hydrochloride) [Example 9]
242 to 244 °C

This collection of values is drawn from patent US6500866B1.
